- System: CCRIS mutagenicity, Ames/micronucleus/aberration tests
- MEASUREMENT_NOTES: CCRIS mutagenicity studies
- CONDITIONS: Test System: AMES SALMONELLA TYPHIMURIUM; Strain/Indicator: TA1535; Metabolic Activation: HAMSTER, LIVER, S-9, AROCLOR 1254 (30%); Method: PREINCUBATION
Active and inactive are the calls of the source. No rule for the calls is given here.
Classes used: yes (1) for active, no (0) for inactive

• CCCCCCCCOc1ccc(C(=O)O)cc1 = no (0)
• COc1ccc(C(=O)c2ccccc2)c(O)c1 = no (0)
• Cc1ccc(CO)cc1 = no (0)
• Cl/C=C\Cl = no (0)
• CC(=O)Oc1ccccc1C(=O)O = no (0)
• CC(=O)O = no (0)
• CC(C)CON=O = yes (1)
• Oc1c(Cl)ccc(Cl)c1Cl = no (0)
• N#C/C=C/C#N = no (0)
• CCCCCCCCCCCC(=O)N(CCO)CCO = no (0)
• NC(N)=NC(=O)c1nc(Cl)c(N)nc1N = no (0)
• CCC(C)(C)c1ccc(O)cc1 = no (0)
• Cc1ccc(S(=O)(=O)NC(=O)NN2CCCCCC2)cc1 = yes (1)
• CC(CN1c2ccccc2Sc2ccccc21)N(C)C (configuration not stated) = no (0)
• CCCCC(CC)CN (configuration not stated) = no (0)
• CCSCCC(N)C(=O)O (configuration not stated) = no (0)
• c1ccsc1 = no (0)

---

- System: CCRIS mutagenicity, Ames/micronucleus/aberration tests
- MEASUREMENT_NOTES: CCRIS mutagenicity studies
- CONDITIONS: Test System: AMES SALMONELLA TYPHIMURIUM; Strain/Indicator: TA98; Metabolic Activation: NONE; Method: PREINCUBATION
- From the text: The CCRIS database contains chemical records with carcinogenicity, mutagenicity, tumor promotion, and tumor inhibition test results. It was developed by the National Cancer Institute (NCI). Data are derived from studies cited in primary journals, current awareness tools, NCI reports, and other sources. Test results have been reviewed by experts in carcinogenesis and mutagenesis. CCRIS provides historical information from the years 1985 - 2011. It is no longer updated. […]
Active and inactive are the calls of the source. How the calls were made is not given here.
Classes used: active, inactive

* CC1CC(=O)O1 (configuration not stated) | active
* CC(C)CON=O | inactive
* C[Si](C)(C)Cl | inactive
* CC1=C2C(=CC(C)(C)[C@@H]2O)C(=O)[C@](C)(O)C12CC2 | active
* Cc1ccc(C)cc1 | inactive
* COc1cccc2c1C(=O)c1c(O)c3c(c(O)c1C2=O)C[C@@](O)(C(=O)CO)C[C@@H]3O[C@H]1C[C@H](N)[C@H](O)[C@H](C)O1 | active
* c1ccc2cnncc2c1 | inactive

---

- Tested on: CCRIS mutagenicity, Ames/micronucleus/aberration tests
- MEASUREMENT_NOTES: CCRIS mutagenicity studies
- CONDITIONS: Test System: AMES SALMONELLA TYPHIMURIUM; Strain/Indicator: TA1535; Metabolic Activation: RAT LIVER S-9, PHENOBARBITAL AND BETA-NAPHTHOFLAVONE; Method: PREINCUBATION
The source made the active and inactive calls. No rule for the calls is given here.
Classes used: YES (active), NO (inactive)

* O=c1n(Cl)c(=O)n(Cl)c(=O)n1Cl | NO
* NC=O | NO
* CNN | YES
* O=[N+]([O-])c1ccc(/C=C/c2ccc([N+](=O)[O-])cc2S(=O)(=O)O)c(S(=O)(=O)O)c1 | NO
* O=CC=O | YES
* Nc1cc(S(=O)(=O)O)c2cccc(S(=O)(=O)O)c2c1 | NO
* CCCCCCCCCCCCCCCCCC(N)=O | NO
* OCCO | NO

Source: PubChem BioAssay AID1259407
